pIC50 values for the molecules below.
Biological target: UniProtKB Q75Z89
Sequence (Q75Z89 whole entry): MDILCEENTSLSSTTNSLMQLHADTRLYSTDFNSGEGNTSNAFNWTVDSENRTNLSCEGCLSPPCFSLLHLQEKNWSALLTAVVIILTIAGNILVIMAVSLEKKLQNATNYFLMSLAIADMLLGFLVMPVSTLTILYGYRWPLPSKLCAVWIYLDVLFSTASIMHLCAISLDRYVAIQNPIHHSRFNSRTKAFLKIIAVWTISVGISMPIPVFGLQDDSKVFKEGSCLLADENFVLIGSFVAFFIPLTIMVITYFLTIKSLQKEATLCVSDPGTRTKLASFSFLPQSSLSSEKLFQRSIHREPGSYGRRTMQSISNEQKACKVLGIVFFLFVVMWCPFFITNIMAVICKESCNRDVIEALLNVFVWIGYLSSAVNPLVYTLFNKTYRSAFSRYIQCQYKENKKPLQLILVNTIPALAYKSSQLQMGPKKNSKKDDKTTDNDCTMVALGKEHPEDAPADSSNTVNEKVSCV
Experiment: Binding affinity towards 5-hydroxytryptamine 2 receptor in calf frontal cortex
Assay type: tissue-based
pIC50: −log10 of the molar value.

MOLECULE | TESTED SYSTEM | SIGN | pIC50
O=C1CC2(CCCC2)CC(=O)N1CCCCN1CCN(c2ncccn2)CC1 | UniProtKB Q75Z89 | = | 5.00
CCCN(CCCCNS(=O)(=O)c1ccc(C)cc1)C1COc2cccc(OC)c2C1 (single isomer, unassigned; (+)) | UniProtKB Q75Z89 | = | 5.10
CCCN(CCCCN1C(=O)CC2(CCCC2)CC1=O)C1COc2ccccc2C1 (stereo unspecified) | UniProtKB Q75Z89 | = | 5.70
CCCN(CCCCNC(=O)c1ccc(F)cc1)C1COc2cccc(OC)c2C1 (stereo unspecified) | UniProtKB Q75Z89 | = | 5.52
CCCN(CCCCNC(=O)c1ccccc1OC)C1COc2cccc(OC)c2C1 (stereo unspecified) | UniProtKB Q75Z89 | = | 5.40
CCCN(CCC)C1CCc2cccc(O)c2C1 (stereo unspecified) | UniProtKB Q75Z89 | = | 4.31
CCCN(CCCCN1C(=O)c2ccccc2S1(=O)=O)C1COc2cccc(OC)c2C1 (stereo unspecified) | UniProtKB Q75Z89 | = | 5.00
CCCN(CCCCn1c(=O)oc2cccnc21)C1COc2cccc(OC)c2C1 (stereo unspecified) | UniProtKB Q75Z89 | = | 5.22
COc1cccc2c1CC(N1CCCC1)CO2 (stereo unspecified) | UniProtKB Q75Z89 | = | 4.22
CCCN(CCCCN1C(=O)CC2(CCCC2)CC1=O)C1COc2cccc(OC)c2C1.O=C(O)C(=O)O (stereo in doubt; 9g) | UniProtKB Q75Z89 | = | 6.00
CCCN(CCCON1C(=O)CC2(CCCC2)CC1=O)C1COc2cccc(OC)c2C1 (stereo unspecified) | UniProtKB Q75Z89 | = | 5.40
CCCN(CCCCNS(=O)(=O)c1ccc(C)cc1)C1COc2cccc(OC)c2C1 (stereo in doubt; 15d) | UniProtKB Q75Z89 | = | 5.00
CCCN(CCCCN1C(=O)C2CCCC2C1=O)C1COc2cccc(OC)c2C1 (single isomer, unassigned; (-)) | UniProtKB Q75Z89 | = | 5.52
CCCN(CCC)C1COc2cccc(O)c2C1 (stereo unspecified) | UniProtKB Q75Z89 | < | 4.00
CCCN(CCCCNS(=O)(=O)c1ccc(C)cc1)C1COc2cccc(OC)c2C1 (single isomer, unassigned; (-)) | UniProtKB Q75Z89 | = | 5.30
CCCN(CCCN1C(=O)c2ccccc2C1=O)C1COc2cccc(OC)c2C1 (stereo unspecified) | UniProtKB Q75Z89 | = | 5.10
CCCN(CCC)C1COc2ccccc2C1 (stereo unspecified) | UniProtKB Q75Z89 | = | 4.10
CCCN(CCNC(C)=O)C1COc2cccc(OC)c2C1 (stereo unspecified) | UniProtKB Q75Z89 | < | 3.00
CCCN(CCC)C1COc2cccc(OC)c2C1 (single isomer, unassigned; (+)) | UniProtKB Q75Z89 | = | 5.01
COc1cccc2c1CC(NCCCCN1C(=O)c3ccccc3C1=O)CO2 (stereo unspecified) | UniProtKB Q75Z89 | = | 6.22
CCCN(CCNS(=O)(=O)c1ccc(C)cc1)C1COc2cccc(OC)c2C1 (stereo in doubt; 15b) | UniProtKB Q75Z89 | = | 6.00
